Provenance of the data: ChEMBL document CHEMBL1201862

- Test system: KM12
- Protocol: NCI tumour cell line growth inhibition, 48 h
Activity calls are given as the source filed them. No stated cut-off is given here; in the data, active = GI50 up to about 1.1 µM and inactive = higher.
Give measured GI50 for each item. Keep answers brief.

{"Compound": "COc1c(Cl)cc(Cl)cc1S(=O)O", "Measured value": "> 100 µM (inactive)"}
{"Compound": "COc1ccc2c(c1)c(CC(=O)O)c(C)n2C(=O)c1ccc(Cl)cc1", "Measured value": "60.8 µM (inactive)"}
{"Compound": "CC(C)(C)C1=CC(CCC(=O)Nc2ccccc2[N+](=O)[O-])=NC(S)N1 (stereo not given)", "Measured value": "> 100 µM (inactive)"}

# map each compound to its GI50
1. Cc1c(O)ccc2c(O)c(NC(=O)c3ccc4c(c3)CCC(C)(C)O4)c(=O)oc12
2. O=C1c2ccccc2C(=O)N1CCCC(=O)n1cc(F)c(=O)[nH]c1=O
3. O=c1c(O)c(-c2ccccc2)n(O)c2ccc(Cl)cc12
4. O=c1[nH]nc(Cc2ccccc2)n1C1CCCC1
5. Cc1nc2c(=O)n(C)c(=O)n(C)c2o1
6. BrCC(Br)(c1ccccc1)c1ccccc1-c1cc(-c2ccccc2)cc(-c2ccccc2)n1 (stereo not given)

> 100 µM (inactive)
6.73 µM (inactive)
31.6 µM (inactive)
> 100 µM (inactive)
> 100 µM (inactive)
3.13 µM (inactive)

Case `CSc1nc(C)c(CCOC(C)=O)c(N=P(c2ccccc2)(c2ccccc2)c2ccccc2)n1` , KM12, GI50 recorded as 3.72 µM (inactive)

====

- System: KM-20L2
- Protocol: NCI tumour cell line growth inhibition, 48 h
Activity calls are given as the source filed them. Rule as the data show it: active = GI50 up to about 1.1 µM and inactive = higher.
Pick one and only one: YES for active, NO for inactive

Take a look at these entries with their results.
{"Compound": "COc1cc(-c2[nH]ccc2Cl)oc1C1=C2N=C3C=C2C(C(C)C)C1CCCCCCCC3 (configuration not stated)", "Class name": "YES"}
{"Compound": "CC(c1ccc2c(c1)CCC1C2CC2OC23CC=CC(=O)[C@]13C)C1C[C@]2(C)O[C@]2(C)[C@H](O)O1 (some centres not stated)", "Class name": "NO"}
{"Compound": "O=c1c(NO)c([N+](=O)[O-])cnn1-c1ccccc1", "Class name": "NO"}

For this compound, state the assay outcome: CN1C(c2ccccc2)CC(O)CC1c1ccccc1 (configuration not stated) NO

Fill in: this test's call for `O=C(O)c1cc(Cl)cc(NC(=O)C(Cl)Cl)c1Cl` is ___ NO

Look up the recorded call for CC(C)NCC(O)COC(=O)c1cccs1 (configuration not stated) in this test. NO

Hi team, can someone confirm the assay call for CC(C)c1cc(OCC(O)CO)cc(C(C)C)c1 (configuration not stated) ? NO

Entry `O=C(O)CN(c1ccccc1)S(=O)(=O)c1ccc(NC(=O)c2ccccc2)cc1` : call = ? NO

Call for entry CO[C@@]12[C@H](COC(N)=O)C3=C(C(=O)C(C)=C(N)C3=O)N1C[C@H]1[C@@H]2N1C (some centres not stated) [PORFIROMYCIN] : NO

Hi team, can someone confirm the assay call for `CCOC(=N)CC(=O)Nc1ccccc1CC` ? NO

Tell me the recorded outcome of this test for COc1cccc(CC(C)N)c1 (configuration not stated) . NO

Hey, what did the test say about COC(=O)C(=O)C(C(C)=O)C(=O)C(=O)Nc1ccc(C)cc1C (configuration not stated) ? NO

Could you please tell me the result logged for `COC(=O)/C(=C/c1ccc(OC)cc1)C(C(=O)O)=C1CCCCC1` in this assay? NO

====

Exercise: state measured GI50 for each of the compounds provided.
- System: OVCAR-4
- Protocol: NCI tumour cell line growth inhibition, 48 h
Calls of active or inactive are those of the source. Cut-off read from the data, not from the text of the source: active = GI50 up to about 1.1 µM and inactive = higher.

Examples from the recorded data:
{"Compound": "CC(C)(C)c1ccc2c(c1)S(=O)(=O)Nc1ccc(Cl)cc1NS(=O)(=O)c1cc(C(C)(C)C)ccc1OCCOCCOCCO2", "GI50": "5.69 µM (inactive)"}
{"Compound": "CC(Oc1ccccc1Cl)C(=O)NN1C(=O)CSC1c1ccc(Cl)cc1 (stereo not given)", "GI50": "13.7 µM (inactive)"}
{"Compound": "COc1cc(Br)cc2cc(C3=CSC4=NCCN34)c(=O)oc12", "GI50": "18.2 µM (inactive)"}
{"Compound": "Cc1cc(O)c(C(c2cccnc2)c2c(O)cc(C)[nH]c2=O)c(=O)[nH]1", "GI50": "> 100 µM (inactive)"}
{"Compound": "Cc1cc(=O)oc2cc(OCCCOc3ccc4c(C)cc(=O)oc4c3)ccc12", "GI50": "> 100 µM (inactive)"}

Value sought for every listed compound: GI50.
1. Cc1cc2c(c(C(N)=O)c1C)-c1cccc(Cl)c1C2=O
2. CC(=O)n1c2ccc(Br)cc2c2nc3ccccc3nc21
3. Cc1c(-c2nnc(-c3ccccc3)o2)c(=O)n(-c2ccccc2)n1C
4. Cn1c(=O)c2nc(CCNC(=O)c3ccccc3)[nH]c2n(C)c1=O

> 100 µM (inactive)
75.3 µM (inactive)
> 100 µM (inactive)
> 100 µM (inactive)

Form field GI50, entry CC(C)(C)C1=CC(CCC(=O)Nc2ccccc2[N+](=O)[O-])=NC(S)N1 (stereo not given) : > 100 µM (inactive)

====

- System: MCF7
- Protocol: NCI tumour cell line growth inhibition, 48 h
Active and inactive are the calls of the source. No stated cut-off is given here; in the data, active = GI50 up to about 1.1 µM and inactive = higher.
Could you please pick one outcome from this set? active, inactive

{"Compound": "CC(=O)NS(=O)(=O)c1ccc(NC(=O)c2c3ccccc3nc3ccccc23)cc1", "Class name": "inactive"}
{"Compound": "C[C@H]1[C@H](C)CC[C@]2(C(=O)OC3OC(CO)C(O)C(O)C3O)CC[C@]3(C)C(=CC[C@@H]4[C@@]5(C)C[C@@H](O)[C@@H]6OC(=O)c7cc(O)c(O)c(O)c7-c7c(cc(O)c(O)c7O)C(=O)OC[C@@]6(CO)[C@@H]5CC[C@]43C)[C@H]12 (some centres not stated)", "Class name": "inactive"}
{"Compound": "CC(=O)C1=C(C)N(c2ccc(C)cc2)C2(O)C=CC(=O)C3C(=O)N(c4ccccc4)C(=O)C132 (configuration not stated)", "Class name": "inactive"}
{"Compound": "O=C(Nc1ccccc1)n1[nH]c(=O)n(-c2ccccc2)c1=O", "Class name": "inactive"}

Could you check what this test reported for `Nc1nc(N)c2ncn(Cc3ccccc3CCl)c2n1` ? inactive

Outcome logged for CC(=O)OCC1OC(n2c3c(c(-c4ccc(C)cc4)c(C#N)c2=S)C(=O)CC(C)(C)C3)C(OC(C)=O)C(OC(C)=O)C1OC(C)=O (configuration not stated) in this assay: inactive

What was the test verdict on `CCC(=O)O[C@H]1CC[C@H]2[C@@H]3CCC4=C/C(=N/NC(=O)c5cccc6c(=O)c7ccccc7[nH]c56)CC[C@]4(C)[C@H]3CC[C@]12C` ? inactive

How was CC(N)C(C)Cc1ccccc1 (configuration not stated) classified in this test? inactive

Tell me the recorded outcome of this test for `CCOC(=O)CNc1c(OCc2ccccc2)c(=O)c1=O` . inactive

Dear all, I need the recorded test outcome for `COc1ccc(C(=O)c2[nH]c(Nc3cc(C)ccn3)c(C(=S)Nc3ccccc3)c2N)cc1` , thank you. inactive

Lab log entry: `CC1=C(C)C(=O)O[C@@H]([C@](C)(O)[C@]2(O)CC[C@@]3(O)[C@@H]4C[C@H]5O[C@]56[C@@H](O)C=CC(=O)[C@]6(C)[C@H]4CC[C@]23C)C1` — outcome as called in the assay? active

Test call for this compound, please: `O=C1c2ccccc2C(=O)N1n1c(Cc2ccc([N+](=O)[O-])cc2)n[nH]c1=O` inactive

Name the outcome recorded for `COC(=O)c1cc(OC)c(OC)c(OC)c1-c1cc2c(cc1C=O)OCO2` in the assay. inactive

Dear all, I need the recorded test outcome for CC#CC(O)(C(=O)OC1CC(C)N(C)C(C)(C)C1)C1CCCC1 (configuration not stated) , thank you. inactive

Call for entry CCOc1ccc(NCC2CC/C(=C\C=C\c3ccccc3)C2=O)cc1 (configuration not stated) : inactive

Please share the test call associated with COCOC1/C=C/CCCC#C[C@H](C)C(=O)CC1 (some centres not stated) . inactive

Per the records of this test, what outcome belongs to `O=C(O)CCCc1ccc2ccccc2c1` ? inactive

====

- Tested on: MOLT-4
- Protocol: NCI tumour cell line growth inhibition, 48 h
Active and inactive are the calls of the source. Cut-off read from the data, not from the text of the source: active = GI50 up to about 1.1 µM and inactive = higher.
Hi! Could you answer with just one of these? yes for active, no for inactive

Take a look at these entries with their results.
{"Compound": "CC(=O)O[C@H]1C(=O)[C@@]2(C)C(C(OC(=O)c3ccccc3)[C@]3(O)CC(OC(=O)C(O)C(NC(=O)c4ccc(C)cc4)c4ccccc4)C(C)=C1C3(C)C)[C@]1(OC(C)=O)CO[C@@H]1C[C@@H]2O (stereo not given in full)", "Class name": "yes"}
{"Compound": "Cc1ccc(S(=O)(=O)N/N=C/CN2C(=O)c3ccccc3C2=O)cc1", "Class name": "no"}
{"Compound": "CC(Oc1ccc2cc(C(=O)c3ccccc3)c(=O)oc2c1)C(=O)O (stereo not given)", "Class name": "no"}
{"Compound": "CCOC(=O)CNc1c(OCc2ccccc2)c(=O)c1=O", "Class name": "no"}

Please let me know the test result on file for CC1(C)OC(CCC#N)CN1C(=O)OCc1ccccc1 (stereo not given) . no
